target: JAK1 (Homo sapiens (Human)); experiment: LanthaScreen JAK biochemical assay, JAK1; conditions: C-1 vs Example 1, C-2 vs 7, C-3 vs 13, C-4 vs 6
Sequence (P23458 whole entry): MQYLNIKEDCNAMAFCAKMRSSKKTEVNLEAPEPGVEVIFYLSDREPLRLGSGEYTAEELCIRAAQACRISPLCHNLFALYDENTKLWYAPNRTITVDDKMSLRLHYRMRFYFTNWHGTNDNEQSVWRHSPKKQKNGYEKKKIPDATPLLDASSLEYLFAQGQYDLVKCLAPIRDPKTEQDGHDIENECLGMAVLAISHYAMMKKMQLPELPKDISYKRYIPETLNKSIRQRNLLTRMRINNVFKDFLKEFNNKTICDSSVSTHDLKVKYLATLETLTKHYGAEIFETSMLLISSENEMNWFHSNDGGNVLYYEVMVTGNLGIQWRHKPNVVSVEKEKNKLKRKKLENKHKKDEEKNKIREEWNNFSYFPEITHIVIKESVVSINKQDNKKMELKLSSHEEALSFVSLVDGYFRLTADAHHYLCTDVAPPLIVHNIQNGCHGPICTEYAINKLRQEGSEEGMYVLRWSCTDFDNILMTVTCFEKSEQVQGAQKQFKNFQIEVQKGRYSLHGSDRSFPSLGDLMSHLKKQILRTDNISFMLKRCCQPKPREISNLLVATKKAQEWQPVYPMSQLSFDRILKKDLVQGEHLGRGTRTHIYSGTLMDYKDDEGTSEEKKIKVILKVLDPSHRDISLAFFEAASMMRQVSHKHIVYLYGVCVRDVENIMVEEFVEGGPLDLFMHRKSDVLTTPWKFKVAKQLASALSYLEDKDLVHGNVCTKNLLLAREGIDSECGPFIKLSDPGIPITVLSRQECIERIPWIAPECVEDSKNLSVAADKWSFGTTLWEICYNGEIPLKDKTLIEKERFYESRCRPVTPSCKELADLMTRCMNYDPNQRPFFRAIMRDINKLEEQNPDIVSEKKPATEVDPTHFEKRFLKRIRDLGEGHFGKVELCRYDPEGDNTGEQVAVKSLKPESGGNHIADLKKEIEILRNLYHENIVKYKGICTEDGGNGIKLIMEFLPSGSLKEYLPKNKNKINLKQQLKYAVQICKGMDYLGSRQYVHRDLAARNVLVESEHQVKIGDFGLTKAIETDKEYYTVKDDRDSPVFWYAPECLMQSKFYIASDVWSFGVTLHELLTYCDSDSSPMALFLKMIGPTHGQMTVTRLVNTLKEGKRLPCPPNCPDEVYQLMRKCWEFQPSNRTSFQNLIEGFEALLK
Value type: fold less potent than the corresponding compound of the invention in the enzyme assay

| Compound | Measured value |
| --- | --- |
| CCc1cc(O)c(F)cc1-c1ccc2c(-c3nc4c([nH]3)CCN(C3CCC(C)CC3)C4)n[nH]c2c1 (stereo not shown) [Example C-4] | 2.5 fold |
| CCc1cc(O)c(F)cc1-c1ccc2c(-c3nc4c([nH]3)CCN(CC3CCCOC3)C4)n[nH]c2c1 (stereo not shown) [Example C-3] | 6 fold |
| CCc1cc(O)c(F)cc1-c1ccc2c(-c3nc4c([nH]3)CCN(CCC(C)C)C4)n[nH]c2c1 [Example C-2] | 3 fold |
| CCc1cc(O)c(F)cc1-c1ccc2c(-c3nc4c([nH]3)CCN(C3CC(C)C3)C4)n[nH]c2c1 (stereo not shown) [Example C-1] | 2 fold |
